Please respond with reported EPSA for every item in the list.
# Measurement Notes: EPSA determination by supercritical fluid chromatography
# Format: physicochemical
# Particulars: modified EPSA method, SFC
Starred links: 1 amine or outer side, 2 acyl side, 3 side chain; linkers in the order of their positions; H or OH if unused. Positions of bridges follow the written chain, without caps; N, C: chain ends. Non-standard residues stand in square brackets, D forms with d. Residues, ends and D or L forms follow the SMILES beside them. ξ: configuration not given here. *: point of attachment. Leu(3R-OH,Nα-propionyl) = CCC(=O)N[C@H](C(=O)*)[C@H](O)C(C)C; X1 = CC(C)[C@@H](O[*:3])[C@H](N[*:1])C(=O)[*:2]; X5 = CSC[C@@H](O[*:3])[C@H](N[*:1])C(=O)[*:2]; ξLeu(3ξ-OH) = CC(C)C(O)C(N)C(=O)O; NMeT = CN[CH](C(=O)O)[CH](C)O; dPhLac = O=C(O)[C@H](O)Cc1ccccc1; PhLac = O=C(O)[CH](O)Cc1ccccc1; NMeA = CN[CH](C)C(=O)O; NMeDha = C=C(NC)C(=O)O
Answers are plain numbers, in A^2.

[[record]]
compound = "C=C1C(=O)N[C@@H](C)C(=O)N(C)[C@@H](C)C(=O)N[C@@H]([C@H](OC(=O)[C@@H](NC(=O)CC)[C@H](O)C(C)C)C(C)C)C(=O)N(C)[C@@H]([C@@H](C)OC)C(=O)O[C@H](CSC)[C@H](NC(C)=O)C(=O)O[C@H](Cc2ccccc2)C(=O)N1C [Compound 2] (Ac-[X5][dPhLac][NMeDha]A[NMeA][X1](Leu(3R-OH,Nα-propionyl))[NMeT](Me); ester 1-C)"
recorded_endpoint = "EPSA"
value_reported = 104


Let us examine a further case.
Quick note, EPSA for C=C1C(=O)NC(C)C(=O)N(C)C(C)C(=O)NC(C(O)C(C)C)C(=O)N(C)C(C(C)OC)C(=O)OC(C)C(NC(C)=O)C(=O)OC(Cc2ccccc2)C(=O)N1C (centres unmarked) [Compound 15] (Ac-T[PhLac][NMeDha]A[NMeA][ξLeu(3ξ-OH)][NMeT](Me); ester 1-C; configuration not given here) landed at 109

The measurements presented in this section are drawn from patent US20240252668A1.
